B1: library; numbered along this chain (parent)
chain: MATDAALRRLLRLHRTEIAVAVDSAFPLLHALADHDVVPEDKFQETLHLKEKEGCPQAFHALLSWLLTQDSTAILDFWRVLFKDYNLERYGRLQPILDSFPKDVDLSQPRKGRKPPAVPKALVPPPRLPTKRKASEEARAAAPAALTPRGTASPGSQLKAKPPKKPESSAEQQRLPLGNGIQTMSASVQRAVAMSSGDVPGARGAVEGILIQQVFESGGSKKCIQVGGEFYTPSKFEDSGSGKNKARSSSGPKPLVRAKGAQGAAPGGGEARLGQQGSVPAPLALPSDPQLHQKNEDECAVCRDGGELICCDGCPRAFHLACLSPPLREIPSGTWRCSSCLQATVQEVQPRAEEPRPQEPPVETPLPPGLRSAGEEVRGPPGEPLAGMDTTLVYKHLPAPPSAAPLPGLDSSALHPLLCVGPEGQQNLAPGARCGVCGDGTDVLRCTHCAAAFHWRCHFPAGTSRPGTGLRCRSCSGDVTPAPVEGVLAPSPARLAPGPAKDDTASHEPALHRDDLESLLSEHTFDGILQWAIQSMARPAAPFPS

# Variants of: B1
# assay method text: AIRE transcriptional activation functional score (insulin promoter-GFP; nonsense median 0, synonymous median 1) (normalised score); higher = higher AIRE activity (more reporter activation)
# condition info: with insulin promoter-GFP reporter in HEK293
Some variants, each annotated with its measured AIRE transcriptional activation functional score.

Take a look at these entries with their results.
mutation string	reported
A271P	1.02
R272L	1.01

Now consider the entry below.
Requested field: AIRE transcriptional activation functional score. Item: `L273F`
0.977
